test system: HCV pseudoparticles; test: HCV pseudoparticle infection assay (luciferase reporter, Huh7 cells); assay type: cell-based, HCV (genotype 1b E1 and E2 envelope); conditions: Hepatitis C virus, genotype 1b, Huh-7, 48 h, HCV pseudoparticles (genotype 1b), luciferase activity 2 days after infection, class
pEC50: −log10 of the molar value.
Overview of recorded pEC50 for various compounds

Compound: CN(C)CC1(S(=O)(=O)NC(=O)c2ccc(Nc3nc(OCC(F)(F)F)nc(N4CCN(S(=O)(=O)c5ccccc5Cl)CC4)n3)cc2)CC1 [Example 8033]
pEC50: 5.30 to 6.00
--
Compound: C=C[C@@H]1C[C@]1(NC(=O)CCCNC(=O)c1ccc(Nc2nc(NC3(c4ccc(Cl)cc4)CC3)nc(OCC(F)(F)F)n2)cc1)C(=O)NS(=O)(=O)C1CC1 [Example 2032]
pEC50: 7.00 to 9.30
--
Compound: O=C(NCCS(=O)(=O)NC(=O)c1ccc(Nc2nc(NC3(c4ccc(Cl)cc4)CC3)nc(OCC(F)(F)F)n2)cc1)c1ccccc1 [Example 1037]
pEC50: 7.00 to 9.30
--
Compound: CN(C)S(=O)(=O)NC(=O)C1(CNC(=O)c2ccc(Nc3nc(NC4(c5ccc(Cl)cc5)CC4)nc(OCC(F)(F)F)n3)cc2)CC1 [Example 2078]
pEC50: 7.00 to 9.30
--
Compound: CCS(=O)(=O)NC(=O)[C@@]1(NC(=O)CCCNC(=O)c2ccc(Nc3nc(NC4(c5ccc(Cl)cc5)CC4)nc(OCC(F)(F)F)n3)cc2)C[C@H]1C1CC1(F)F (stereo partly drawn) [Example 2047]
pEC50: 7.00 to 9.30
--
Compound: O=C(NCC1(C(=O)N[C@]2(C(=O)NS(=O)(=O)C3CC3)C[C@H]2C2CC2)CC1)c1ccc(Nc2nc(NC3(c4ccc(Cl)cc4)CC3)nc(OCC(F)(F)F)n2)cc1 [Example 2066]
pEC50: 7.00 to 9.30

====

test system: HCV pseudoparticles; assay: HCV pseudoparticle infection assay (luciferase reporter, Huh7 cells); type: cell-based, HCV (genotype 1b E1 and E2 envelope); details: Hepatitis C virus, genotype 1b, Huh-7, 48 h, HCV pseudoparticles (genotype 1b), luciferase activity 2 days after infection, class
Reported EC50 values follow for various compounds
Observation type: EC50

Compound: O=C(NS(=O)(=O)c1ccc(Nc2nc(NC3(c4ccc(Cl)cc4)CC3)nc(OCC(F)(F)F)n2)cc1)C1(CN2CCOCC2)CC1 [Example 3003]
Observation type: EC50
Result: 100 to 1000 nM
--
Compound: C=CS(=O)(=O)NC(=O)C1(CNC(=O)c2ccc(Nc3nc(NC4(c5ccc(Cl)cc5)CC4)nc(OCC(F)(F)F)n3)cc2)CC1 [Example 2072]
Observation type: EC50
Result: 0.5 to 100 nM
--
Compound: CC1(C)CCCN1CC1(S(=O)(=O)NC(=O)c2ccc(Nc3nc(NC4(c5ccc(Cl)cc5)CC4)nc(OCC(F)(F)F)n3)cc2)CC1 [Example 1016]
Observation type: EC50
Result: 0.5 to 100 nM
--
Compound: CC(C)(C)OC(=O)N1CCC[C@H]1C(=O)NS(=O)(=O)CCNC(=O)c1ccc(Nc2nc(NC3(c4ccc(Cl)cc4)CC3)nc(OCC(F)(F)F)n2)cc1 [Example 4004]
Observation type: EC50
Result: 0.5 to 100 nM
--
Compound: CS(=O)(=O)NC(=O)CCNC(=O)CCCNC(=O)c1ccc(Nc2nc(NC3(c4ccc(Cl)cc4)CC3)nc(OCC(F)(F)F)n2)cc1 [Example 2059]
Observation type: EC50
Result: 0.5 to 100 nM
--
Compound: Cn1cnc(C[C@H](NC(=O)c2ccc(Nc3nc(NC4(c5ccc(Cl)cc5)CC4)nc(OCC(F)(F)F)n3)cc2)C(=O)NS(=O)(=O)C2CC2)c1 [Example 8018]
Observation type: EC50
Result: 0.5 to 100 nM
--
Compound: CNC(=O)OCC1(S(=O)(=O)NC(=O)c2ccc(Nc3nc(NC4(c5ccc(Cl)cc5)CC4)nc(OCC(F)(F)F)n3)cc2)CC1 [Example 1026]
Observation type: EC50
Result: 100 to 1000 nM
--
Compound: CS(=O)(=O)NC(=O)[C@@]1(NC(=O)CCCNC(=O)c2ccc(Nc3nc(NC4(c5ccc(Cl)cc5)CC4)nc(OCC(F)(F)F)n3)cc2)C[C@H]1C1CC1(F)F (stereo partly drawn) [Example 2046]
Observation type: EC50
Result: 0.5 to 100 nM
--
Compound: COc1ccc(C(=O)N2CCN(c3nc(Nc4ccc(C(=O)NS(=O)(=O)C5(CN(C)C)CC5)cc4)nc(OCC(F)(F)F)n3)CC2)cc1 [Example 8041]
Observation type: EC50
Result: 1000 to 5000 nM
--
Compound: CS(=O)(=O)NC(=O)CCNC(=O)c1ccc(Nc2nc(NC3(c4ccc(Cl)cc4)CC3)nc(OCC(F)(F)F)n2)cc1 [Example 2018]
Observation type: EC50
Result: 0.5 to 100 nM
--
Compound: CC(=O)N1CCN(CC2(S(=O)(=O)NC(=O)c3ccc(Nc4nc(NC5(c6ccc(Cl)cc6)CC5)nc(OCC(F)(F)F)n4)cc3)CC2)CC1 [Example 1018]
Observation type: EC50
Result: 0.5 to 100 nM
--
Compound: CN(C)CC1(S(=O)(=O)NC(=O)c2ccc(Nc3nc(OCC(F)(F)F)nc(N4CCN(S(=O)(=O)c5ccccc5F)CC4)n3)cc2)CC1 [Example 8030]
Observation type: EC50
Result: 1000 to 5000 nM
--
Compound: CCC(=O)NS(=O)(=O)c1ccc(Nc2nc(NC3(c4ccc(Cl)cc4)CC3)nc(OCC(F)(F)F)n2)cc1 [Example 8004]
Observation type: EC50
Result: 1000 to 5000 nM
--
Compound: COCC1(S(=O)(=O)N(C)C(=O)c2ccc(N(C)c3nc(NC4(c5ccc(Cl)cc5)CC4)nc(OC)n3)cc2)CC1 [Example 8008]
Observation type: EC50
Result: 1000 to 5000 nM
--
Compound: CC(C)S(=O)(=O)NC(=O)[C@@]1(NC(=O)CCCNC(=O)c2ccc(Nc3nc(NC4(c5ccc(Cl)cc5)CC4)nc(OCC(F)(F)F)n3)cc2)C[C@H]1C1CC1 [Example 2041]
Observation type: EC50
Result: 0.5 to 100 nM
--
Compound: CS(=O)(=O)NC(=O)CNC(=O)c1ccc(Nc2nc(NC3(c4ccc(Cl)cc4)CC3)nc(OCC(F)(F)F)n2)cc1 [Example 2009]
Observation type: EC50
Result: 0.5 to 100 nM
--
Compound: C=C[C@@H]1C[C@]1(NC(=O)C1(CNC(=O)c2ccc(Nc3nc(NC4(c5ccc(Cl)cc5)CC4)nc(OCC(F)(F)F)n3)cc2)CC1)C(=O)NS(=O)(=O)C1CC1 [Example 2065]
Observation type: EC50
Result: 0.5 to 100 nM
--
Compound: O=C(CC(F)(F)F)NCCS(=O)(=O)NC(=O)c1ccc(Nc2nc(NC3(c4ccc(Cl)cc4)CC3)nc(OCC(F)(F)F)n2)cc1 [Example 1040]
Observation type: EC50
Result: 0.5 to 100 nM
--
Compound: CN(C)CC1(S(=O)(=O)NC(=O)c2ccc(Nc3nc(OCC(F)(F)F)nc(N4CCN(S(=O)(=O)c5ccccc5)CC4)n3)cc2)CC1 [Example 8031]
Observation type: EC50
Result: 1000 to 5000 nM
--
Compound: O=C(CCCCNC(=O)c1ccc(Nc2nc(NC3(c4ccc(Cl)cc4)CC3)nc(OCC(F)(F)F)n2)cc1)NC1(C(=O)NS(=O)(=O)C2CC2)CC1 [Example 2029]
Observation type: EC50
Result: 0.5 to 100 nM
--
Compound: CC(C)(CNC(=O)c1ccc(Nc2nc(NC3(c4ccc(Cl)cc4)CC3)nc(OCC(F)(F)F)n2)cc1)C(=O)NS(=O)(=O)C1CCC1 [Example 2089]
Observation type: EC50
Result: 0.5 to 100 nM
--
Compound: O=C(NCCS(=O)(=O)NC(=O)C1CC1)c1ccc(Nc2nc(NC3(c4ccc(Cl)cc4)CC3)nc(OCC(F)(F)F)n2)cc1 [Example 4002]
Observation type: EC50
Result: 0.5 to 100 nM
--
Compound: CC(C)(C)CNCC1(C(=O)NS(=O)(=O)c2ccc(Nc3nc(NC4(c5ccc(Cl)cc5)CC4)nc(OCC(F)(F)F)n3)cc2)CC1 [Example 3007]
Observation type: EC50
Result: 1000 to 5000 nM
--
Compound: NC(=O)c1ccc(Nc2nc(N[C@]3(C(=O)NS(=O)(=O)C4CC4)C[C@H]3C3CC3)nc(OCC(F)(F)F)n2)cc1 [Example 8001]
Observation type: EC50
Result: 1000 to 5000 nM
